The measurements presented in this section are drawn from paper PMC7076710.

System: COS-1 cells
Assay Remarks: MTT assay (cell viability)
Assay type: cell-based
Recorded Conditions: 10 µM; cell viability
Protocol: To investigate the toxicity as a potential cause of decreased or increased activity in luciferase reporter gene assays, we tested a set of 40 active compounds in the COS-1 cell line used for the luciferase assays. […] Figure 5 Effects of selected compounds on COS-1 cell viability. (A) Compound-induced necrosis was quantified with the LDH assay after a 24-h compound exposure. […] (B) Cell viability was analyzed with the MTT assay after a 24-h compound exposure. […]
Experimental Endpoint: MTT.10µM
Just the number, please, no unit attached.

{"Compound": "Cc1onc(-c2ccccc2)c1C(=O)Nc1ccc(OCc2ccccc2)cc1", "Experimental Endpoint": "MTT.10µM", "Recorded Number": 100.93}
{"Compound": "CCN(CC)c1ccc(NC(=O)c2csc([N+](=O)[O-])c2)cc1 [Compound 47u]", "Experimental Endpoint": "MTT.10µM", "Recorded Number": 97.2}
{"Compound": "CCN(CC)c1ccc(NC(=O)c2cnsc2)cc1 [Compound 47s]", "Experimental Endpoint": "MTT.10µM", "Recorded Number": 92.49}
{"Compound": "CN(C)c1ccc(NCc2c[nH]nc2-c2ccc(F)cc2)cc1", "Experimental Endpoint": "MTT.10µM", "Recorded Number": 103.53}
{"Compound": "C=CCN(Cc1ccc(N(CC)CC)cc1)c1c(-c2ccccc2)noc1C [Compound 30b]", "Experimental Endpoint": "MTT.10µM", "Recorded Number": 96.41}
{"Compound": "CCN(CC)c1ccc(NC(=O)c2cnoc2-c2ccccc2)cc1 [Compound 47d]", "Experimental Endpoint": "MTT.10µM", "Recorded Number": 90.87}
{"Compound": "CCN(CC)c1ccc(NC(=O)c2snnc2-c2ccccc2)cc1 [Compound 47n]", "Experimental Endpoint": "MTT.10µM", "Recorded Number": 90.69}
{"Compound": "CCN(CC)c1ccc(NC(=O)c2c(-c3ccncc3)noc2C)cc1 [Compound 39c]", "Experimental Endpoint": "MTT.10µM", "Recorded Number": 90.58}

Kindly review the next compound as well.
Need MTT.10µM, item "CCN(c1ccc(NC(=O)c2c(-c3ccccc3)noc2C)cc1)C(C)C" 87.88
